Molecular target: ADAR1p110 (Homo sapiens)
Construct: HAT (N); FLAG (alternative preparation, not on the same molecule as HAT) (N); made in house; host or cells: Sf9 insect cells, baculovirus
Sequence (P55265 1-931 isoform P55265-5): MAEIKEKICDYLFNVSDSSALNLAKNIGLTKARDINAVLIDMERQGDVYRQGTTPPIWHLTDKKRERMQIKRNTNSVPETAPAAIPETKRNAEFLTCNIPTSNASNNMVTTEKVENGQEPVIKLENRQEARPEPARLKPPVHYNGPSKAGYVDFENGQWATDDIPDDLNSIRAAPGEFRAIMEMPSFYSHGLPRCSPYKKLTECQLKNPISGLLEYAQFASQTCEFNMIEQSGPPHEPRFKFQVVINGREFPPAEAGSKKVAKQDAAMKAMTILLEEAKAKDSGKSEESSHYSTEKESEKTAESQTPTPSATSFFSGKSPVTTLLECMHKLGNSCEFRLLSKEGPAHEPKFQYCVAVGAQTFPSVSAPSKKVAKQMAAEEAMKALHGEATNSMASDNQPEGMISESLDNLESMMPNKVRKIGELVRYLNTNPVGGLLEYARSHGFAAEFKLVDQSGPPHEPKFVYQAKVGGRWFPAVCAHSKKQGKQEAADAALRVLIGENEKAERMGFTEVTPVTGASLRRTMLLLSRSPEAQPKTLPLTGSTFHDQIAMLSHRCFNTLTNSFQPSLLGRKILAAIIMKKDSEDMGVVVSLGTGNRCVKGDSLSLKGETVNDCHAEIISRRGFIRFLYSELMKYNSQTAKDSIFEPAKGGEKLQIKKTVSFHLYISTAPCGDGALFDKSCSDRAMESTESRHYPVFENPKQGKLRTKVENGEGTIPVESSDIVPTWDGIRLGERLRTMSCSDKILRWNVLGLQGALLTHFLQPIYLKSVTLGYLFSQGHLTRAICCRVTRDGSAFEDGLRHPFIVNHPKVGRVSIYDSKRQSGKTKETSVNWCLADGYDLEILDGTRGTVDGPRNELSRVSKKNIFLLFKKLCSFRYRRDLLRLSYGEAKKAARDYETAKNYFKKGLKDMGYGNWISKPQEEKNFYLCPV
Experiment: in vitro editing assay with recombinant ADAR1p110 and dsRNA or DNA:RNA substrates
Type: biochemical
Settings: mismatched dsRNA substrate, adenosine position 2; read-out: IC50 estimated by in vitro editing assay, RNA:mmRNA, Position 2
measuredQuantity: pIC50
Please note pIC50 is a logarithmic value: minus log10 of concentration in mol/L. Answer with that number alone.

What pIC50 appears in the records for this compound with ADAR1p110 (Homo sapiens)? N#Cc1ccc(NC(=O)c2sc3ccccc3c2Cl)cc1 4.68

----------
Target: ADAR1p150 (Homo sapiens)
Construct: a full-length interferon-inducible p150 and a shorter N-terminus truncated p110
Test: in vitro editing assay, ADAR1p150
Conditions: dsRNAs (matched, mismatched) and DNA:RNA hybrids; not shown
measuredQuantity: IC50

What IC50 appears in the records for this compound with ADAR1p150 (Homo sapiens)? N#Cc1ccc(NC(=O)c2sc3ccccc3c2Cl)cc1 7 to 40 µM

----------
Molecular target: ADAR1p110 (Homo sapiens)
Construct: HAT (N); FLAG (alternative preparation, not on the same molecule as HAT) (N); made in house; host or cells: Sf9 insect cells, baculovirus
Experiment: in vitro editing assay with recombinant ADAR1p110 and dsRNA or DNA:RNA substrates
Format: biochemical
Details: mismatched dsRNA substrate, adenosine position 6; read-out: IC50 estimated by in vitro editing assay, RNA:mmRNA, Position 6
Method: FIG. 26A-FIG. 26B show determination of IC50 by in vitro editing assay. […] The 54 compounds identified in the high-throughput screen were further tested in the in vitro editing assay described in Examples 1 and 2. […] PCR products were sequenced using a specific sequencing primer, and the ratio of A and G peaks in the chromatograms were analyzed by CodonCode Aligner (CodonCode Corporation).
pIC50 listing for selected compounds.
Please note pIC50 is a logarithmic value: minus log10 of concentration in mol/L. Answer with that number alone.

| smilesRepresentation | pIC50 |
| --- | --- |
| N#Cc1c(-c2ccccc2)cc(SCc2ccc(Cl)cc2)n2c1nc1ccccc12 | 4.18 |

Now for another entry.
What pIC50 appears in the records for this compound with ADAR1p110 (Homo sapiens)? N#Cc1ccc(NC(=O)c2sc3ccccc3c2Cl)cc1 5.42

----------
Target: ADAR1p110 (Homo sapiens, UniProt P55265)
Construct: HAT (N); FLAG (alternative preparation, not on the same molecule as HAT) (N); made in house; host or cells: Sf9 insect cells, baculovirus
Assay: in vitro editing assay with recombinant ADAR1p110 and dsRNA or DNA:RNA substrates
Format: biochemical
Conditions: matched dsRNA substrate, adenosine positions 3 & 6; read-out: IC50 estimated by in vitro editing assay, RNA:RNA, Position 3 & 6
Protocol: FIG. 26A-FIG. 26B show determination of IC50 by in vitro editing assay. […] The 54 compounds identified in the high-throughput screen were further tested in the in vitro editing assay described in Examples 1 and 2. […] PCR products were sequenced using a specific sequencing primer, and the ratio of A and G peaks in the chromatograms were analyzed by CodonCode Aligner (CodonCode Corporation).
measuredQuantity: IC50 (µM)
Enter your answer as a number in µM; do not include the unit.

I'd like to know its IC50. The compound in question is Cc1cc(C)n(-c2ccc(N3CCSCC3)nn2)n1 3

----------
Target: ADAR1p110-WT (Homo sapiens)
measuredQuantity: Kd

I'd like to know its Kd. The molecule in question is N#Cc1ccc(NC(=O)c2sc3ccccc3c2Cl)cc1 ~26 µM
